molecular target: hEP3A/Gqi5 (Homo sapiens); construct: expressed in transfected cells; host or cells: HEK-293(EBNA); assay: FLIPR calcium signal, HEK-293(EBNA) cells; assay type: cell-based; details: read-out: Ca2+ Signal-EC50 (nM) EP3
Sequence (P43115 whole entry): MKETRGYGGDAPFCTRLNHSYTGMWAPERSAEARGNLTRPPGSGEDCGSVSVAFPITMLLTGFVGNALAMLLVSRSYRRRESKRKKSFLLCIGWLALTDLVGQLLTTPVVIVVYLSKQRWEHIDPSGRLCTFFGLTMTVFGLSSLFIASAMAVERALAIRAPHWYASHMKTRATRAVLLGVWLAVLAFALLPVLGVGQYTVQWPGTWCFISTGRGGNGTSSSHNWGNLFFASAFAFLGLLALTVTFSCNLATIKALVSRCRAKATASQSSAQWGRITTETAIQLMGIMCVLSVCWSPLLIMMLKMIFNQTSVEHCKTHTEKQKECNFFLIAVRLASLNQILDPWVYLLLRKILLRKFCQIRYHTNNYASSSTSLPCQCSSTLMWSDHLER
assayReadout: EC50 (nM)
Give just the numeric value; nM need not be written.

CCCCCC(O)c1ccc([C@@H]2[C@@H](C/C=C\CCCC(=O)O)[C@H](Cl)C[C@@H]2Cl)cc1 (some centres unmarked); 449

# EC50 lookup, item CCCCCC(O)c1ccc([C@@H]2[C@@H](C/C=C\CCCC(=O)O)[C@H](Cl)C[C@H]2Cl)cc1 (some centres unmarked)
25
